# assay.target: Anti-CD28 Fab (SEQ ID NOs: 202, 203)
# Sequence (VH, as listed by the source, chain 1 of 2): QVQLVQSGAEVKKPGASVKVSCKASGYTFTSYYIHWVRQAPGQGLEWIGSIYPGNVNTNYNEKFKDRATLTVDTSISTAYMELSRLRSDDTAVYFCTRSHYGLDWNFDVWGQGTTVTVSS
# Sequence (VL, as listed by the source, chain 2 of 2): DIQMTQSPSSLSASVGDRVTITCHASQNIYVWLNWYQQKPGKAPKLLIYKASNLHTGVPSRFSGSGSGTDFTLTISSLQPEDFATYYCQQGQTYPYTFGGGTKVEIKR
# assay.summary: phage binding ELISA on captured Fab, competitor CD28 antigen;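 note: clonal phage supernatant binding in wells preincubated with CD28 antigen in blocking buffer, detected by HRP-conjugated anti-M13 antibody ELISA, compared with blocking buffer alone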
outcome.measure: Anti-CD28 Fab signal in the presence of CD28
Number only, no unit.

Task: Report Anti-CD28 Fab signal in the presence of CD28 for YCDGHEERYMAKCL [Phage-786]
Output: 0.06

Task: Report Anti-CD28 Fab signal in the presence of CD28 for YCDGHELMYMEKCL [Phage-797]
Output: 0.06

Task: Report Anti-CD28 Fab signal in the presence of CD28 for YCAGHIGEYMDKCL [Phage-828]
Output: 0.58

Task: Report Anti-CD28 Fab signal in the presence of CD28 for YCAGHAEIYMQKCL [Phage-789]
Output: 0.05

Task: Report Anti-CD28 Fab signal in the presence of CD28 for YCDGHDPQYIRKCI [Phage-817]
Output: 0.06

Task: Report Anti-CD28 Fab signal in the presence of CD28 for YCDGHIEMYMSKCM [Phage-855]
Output: 0.06

Task: Report Anti-CD28 Fab signal in the presence of CD28 for YCTGWQVAYMQNCF [Phage-884]
Output: 0.06

Task: Report Anti-CD28 Fab signal in the presence of CD28 for YCDGHDEQYLMKCL [Phage-879]
Output: 0.07
